Here, each record is paired with measured kd var/kd wt data.
Molecular target: T1, human TGFβ2 (human, UniProt P61812 303-414)
T1 construct: also called TGFβ2 homodimer
T1 sequence: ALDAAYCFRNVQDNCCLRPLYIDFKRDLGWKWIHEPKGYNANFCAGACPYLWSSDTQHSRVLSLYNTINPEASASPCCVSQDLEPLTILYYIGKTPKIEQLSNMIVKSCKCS
Test: Biacore off-rate vs wt GC1008, 50 nM
API doc: respond with a numeric literal and nothing else, no unit.

N59Y (antibody, V domains shown, GC1008 IgG4 variant) VH: QVQLVQSGAEVKKPGSSVKVSCKASGYTFSSNVISWVRQAPGQGLEWMGGVIPIVDIAYYAQRFKGRVTITADESTSTTYMELSSLRSEDTAVYYCASTLGLVLDAMDYWGQGTLVTVSS VL: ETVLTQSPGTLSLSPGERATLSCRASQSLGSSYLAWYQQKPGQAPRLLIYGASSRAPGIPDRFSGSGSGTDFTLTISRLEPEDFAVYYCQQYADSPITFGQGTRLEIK: 1.1

Sample S31A (antibody, V domains shown, GC1008 IgG4 variant) VH: QVQLVQSGAEVKKPGSSVKVSCKASGYTFSANVISWVRQAPGQGLEWMGGVIPIVDIANYAQRFKGRVTITADESTSTTYMELSSLRSEDTAVYYCASTLGLVLDAMDYWGQGTLVTVSS VL: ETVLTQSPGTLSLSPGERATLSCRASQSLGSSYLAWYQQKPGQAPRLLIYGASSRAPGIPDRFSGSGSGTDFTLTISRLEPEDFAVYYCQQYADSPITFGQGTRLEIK ; kd var/kd wt observed: 1.2
